# assay.text: Dissolution of the compound in phosphate buffer at pH 6.8 measured within 2 hrs by dialysis bag diffusion method
# Assay type: physicochemical
# reported.conditions: artificial membrane, pH 6.8, 2 h
So I've got a bunch of molecules here, and I need their Activity values.
Just the number please, in %, no unit attached.

Query :: So what's the measured Activity for this one? "COCc1ccc([C@@H]2[C@@H](O)[C@H](O)[C@@H](C)N2C)cc1"
Result :: 91.8

Query :: So what's the measured Activity for this one? "COc1ccc([C@@H]2[C@@H](O)[C@H](O)[C@@H](C)N2C)cc1"
Result :: 95.2

Query :: So what's the measured Activity for this one? "Cc1ccc([C@@H]2[C@@H](O)[C@H](O)[C@@H](C)N2C)cc1"
Result :: 100

Query :: So what's the measured Activity for this one? "C[C@@H]1[C@@H](O)[C@H](O)[C@@H](c2ccccc2)N1C"
Result :: 100

Query :: So what's the measured Activity for this one? "COc1ccc([C@@H]2[C@@H](O)[C@H](O)[C@@H](C)N2C)c(F)c1"
Result :: 96.7

Query :: So what's the measured Activity for this one? "COc1ccc([C@@H]2[C@@H](O)[C@H](O)[C@@H](C)N2C)cc1OC"
Result :: 87.8

* * *

# System: Escherichia coli
# assay.text: Antimicrobial activity against Escherichia coli ATCC 25922 measured after 18 hrs by broth microdilution method
# Format: functional
# reported.conditions: ATCC 25922, 18 h
So I've got a bunch of compounds here, and I need their log10(MIC) values.
Hi team, quick reminder: these entries are log10 of MIC (µg/mL).

Query :: So what's the measured log10(MIC) for this one? "COc1ccc([C@@H]2[C@@H](O)[C@H](O)[C@@H](C)N2C)cc1OC"
Result :: 1.81

Query :: So what's the measured log10(MIC) for this one? "COc1ccc([C@@H]2[C@@H](O)[C@H](O)[C@@H](C)N2C)c(F)c1"
Result :: 0.60

Query :: So what's the measured log10(MIC) for this one? "Cc1ccc([C@@H]2[C@@H](O)[C@H](O)[C@@H](C)N2C)cc1"
Result :: 2.11

Query :: So what's the measured log10(MIC) for this one? "C[C@@H]1[C@@H](O)[C@H](O)[C@@H](c2ccccc2)N1C"
Result :: 1.20

Query :: So what's the measured log10(MIC) for this one? "COCc1ccc([C@@H]2[C@@H](O)[C@H](O)[C@@H](C)N2C)cc1"
Result :: 0.90

Query :: So what's the measured log10(MIC) for this one? "COc1ccc([C@@H]2[C@@H](O)[C@H](O)[C@@H](C)N2C)cc1"
Result :: 2.11

Query :: So what's the measured log10(MIC) for this one? "COc1cc([C@@H]2[C@@H](O)[C@H](O)[C@@H](C)N2C)c(F)c(C)c1OC"
Result :: 1.81

* * *

# Test system: Proteus mirabilis
# assay.text: Antimicrobial activity against Proteus mirabilis ATCC 14153 measured after 18 hrs by broth microdilution method
# Format: functional
# reported.conditions: ATCC 14153, 18 h
endpoint: MIC (mg/L)
Just the number please, in mg/L, no unit attached.

Query :: So what's the measured MIC for this one? "Cc1ccc([C@@H]2[C@@H](O)[C@H](O)[C@@H](C)N2C)cc1"
Result :: 1020

Query :: So what's the measured MIC for this one? "COc1cc([C@@H]2[C@@H](O)[C@H](O)[C@@H](C)N2C)c(F)c(C)c1OC"
Result :: 1020

Query :: So what's the measured MIC for this one? "COCc1ccc([C@@H]2[C@@H](O)[C@H](O)[C@@H](C)N2C)cc1"
Result :: 16

Query :: So what's the measured MIC for this one? "C[C@@H]1[C@@H](O)[C@H](O)[C@@H](c2ccccc2)N1C"
Result :: 4

Query :: So what's the measured MIC for this one? "COc1ccc([C@@H]2[C@@H](O)[C@H](O)[C@@H](C)N2C)cc1"
Result :: 128
